Data origin: patent US20230235090A1

Could you please report measured Maximum MFI for the items listed next?
- TESTED_SYSTEM: T1, cynomolgus monkey 4-1BB (cynomolgus monkey)
- T1 construct: whole, on cells; also called CHO-K1-cyno 4-1BB; CHO-K1/cyno4-1BB
- PROCEDURE_DETAILS: FACS, CHO-K1/cyno 4-1BB cells [B]
Give the value, in units of MFI, as a plain number.

Input line: Look at this binder and give its reported Maximum MFI. PR001763 (antibody, human IgG1, V domains shown, anti-4-1BB HCAb, human IgG1 Fc) VH: EVQLLESGGGLVQPGGSLRLSCTASGFTFSNYAMSWVRQAPEKGLEWVSSISGSGGSTFYADSVKGRFTISRDNSKNTLYLQMNRLTAEDTAVYYCAKEGSNGTDDYHYDIDVWGQGTTVTVSS
Output line: 57700

Input line: Which Maximum MFI value is on record for Utomilumab analog (PR000483) (antibody, human IgG2, lambda, V domains shown, anti-4-1BB control antibody; also called Tab) VH: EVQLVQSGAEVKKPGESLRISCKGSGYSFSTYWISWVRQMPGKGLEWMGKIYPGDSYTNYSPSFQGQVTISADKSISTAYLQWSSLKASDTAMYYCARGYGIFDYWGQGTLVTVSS VL: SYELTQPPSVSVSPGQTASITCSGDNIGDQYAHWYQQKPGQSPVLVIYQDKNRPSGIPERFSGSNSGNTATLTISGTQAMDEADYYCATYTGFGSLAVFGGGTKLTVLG ?
Output line: 55500

Input line: Which value of Maximum MFI has been reported for PR001764 (antibody, human IgG1, V domains shown, anti-4-1BB HCAb, human IgG1 Fc) VH: EVQLLESGGGLVQPGGSLRLSCAASGFTFSSYAMSWVRQAPEKGLEWVSAISGGGGSTYYADSVKGRFTISRDNSKNTLYLQMDSLKAEDTAVYYCAKEGTTETDDYHYNMDVWGQGTTVTVSS in the records?
Output line: 77300

Input line: What value of measured Maximum MFI is listed for PR001767 (antibody, human IgG1, V domains shown, anti-4-1BB HCAb, human IgG1 Fc) VH: EVQLVETGGGLIQPGGSLRLSCAASGFTVSSNYMSWVRQAPGKGLEWVSVIYSDGSTYYADSVKGRFTISRDNSKNTLYLQMNSLRAEDTAVYYCARDRYYGSGNYPTAYYGMDVRGQGTTVTVSS ?
Output line: 68400
